conditions: 298.15 K; 101 kPa; Liquid

# record.smiles, viscosity, mPa·s
rows = [
    ("CO", 0.551),
    ("CCCCO", 2.585),
    ("CCO", 1.084),
    ("CCCO", 1.95),
    ("ClC(Cl)Cl", 0.556),
]

* * *

conditions: 308.15 K; 101 kPa; Liquid

# record.smiles, unit.of.measure, mass density
records = [
    ("CCCCO", "kg/m3", 798.38),
    ("ClC(Cl)Cl", "kg/m3", 1459.45),
    ("CCCO", "kg/m3", 792.51),
    ("CCO", "kg/m3", 775.51),
    ("CO", "kg/m3", 776.6),
]

* * *

Listed here are compounds together with their documented viscosity.
conditions: 308.15 K; 101 kPa; Liquid
property.measured: viscosity (mPa·s)

# compound, property.measured, obs.value
measured = [
    ("CCCCO [butan-1-ol]", "viscosity", 2.012),
    ("ClC(Cl)Cl [trichloromethane]", "viscosity", 0.513),
    ("CCCO [propan-1-ol]", "viscosity", 1.533),
    ("CCO [ethanol]", "viscosity", 0.902),
    ("CO [methanol]", "viscosity", 0.493),
]

* * *

conditions: 298.15 K; 101 kPa; Liquid
Listed here are molecules together with their documented mass density.

# record.smiles, mass density, kg/m3
data = [
    ("CCO", 784.32),
    ("CO", 786.3),
    ("CCCCO", 806.33),
    ("CCCO", 800.82),
    ("ClC(Cl)Cl", 1478.82),
]

* * *

Listed here are compounds together with their documented speed of sound.
details: 308.15 K; 101 kPa; Liquid; Linear variable-path acoustic interferometer

# compound, unit.of.measure, speed of sound
measured = [
    ("CCO [ethanol]", "m/s", 1111),
    ("CCCCO [butan-1-ol]", "m/s", 1210),
    ("CCCO [propan-1-ol]", "m/s", 1177),
    ("CO [methanol]", "m/s", 1076),
    ("ClC(Cl)Cl [trichloromethane]", "m/s", 950),
]

* * *

Listed here are molecules together with their documented speed of sound.
settings: 298.15 K; 101 kPa; Liquid; Linear variable-path acoustic interferometer

# molecule, speed of sound (m/s)
measured = [
    ("CCCCO [butan-1-ol]", 1235),
    ("CCCO [propan-1-ol]", 1212),
    ("CO [methanol]", 1109),
    ("ClC(Cl)Cl [trichloromethane]", 985),
    ("CCO [ethanol]", 1144),
]
